Target: Factor X (FX), P00742
Sequence (P00742 whole entry, looked up): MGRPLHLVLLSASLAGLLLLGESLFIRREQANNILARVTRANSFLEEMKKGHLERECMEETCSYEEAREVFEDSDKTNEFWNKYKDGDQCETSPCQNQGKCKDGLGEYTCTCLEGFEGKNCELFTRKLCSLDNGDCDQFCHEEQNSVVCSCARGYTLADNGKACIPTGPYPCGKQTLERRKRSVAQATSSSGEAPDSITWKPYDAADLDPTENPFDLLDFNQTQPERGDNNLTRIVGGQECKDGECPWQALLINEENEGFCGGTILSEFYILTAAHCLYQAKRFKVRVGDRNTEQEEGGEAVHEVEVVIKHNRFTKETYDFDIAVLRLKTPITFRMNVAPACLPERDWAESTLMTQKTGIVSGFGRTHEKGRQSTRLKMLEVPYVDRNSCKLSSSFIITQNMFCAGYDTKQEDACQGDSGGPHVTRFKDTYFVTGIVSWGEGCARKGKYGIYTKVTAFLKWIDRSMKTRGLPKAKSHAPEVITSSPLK
Provide the reported kcat/KM of each item.
Give the number; M⁻¹ s⁻¹ is assumed, so skip it.

Requested read-out: kcat/KM. Entry: FIXa variant D203N/F205T/K228N (protein) chain 1: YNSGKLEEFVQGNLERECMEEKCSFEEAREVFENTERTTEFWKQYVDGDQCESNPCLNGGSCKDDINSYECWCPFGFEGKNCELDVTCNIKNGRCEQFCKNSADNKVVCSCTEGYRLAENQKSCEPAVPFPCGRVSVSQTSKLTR chain 2: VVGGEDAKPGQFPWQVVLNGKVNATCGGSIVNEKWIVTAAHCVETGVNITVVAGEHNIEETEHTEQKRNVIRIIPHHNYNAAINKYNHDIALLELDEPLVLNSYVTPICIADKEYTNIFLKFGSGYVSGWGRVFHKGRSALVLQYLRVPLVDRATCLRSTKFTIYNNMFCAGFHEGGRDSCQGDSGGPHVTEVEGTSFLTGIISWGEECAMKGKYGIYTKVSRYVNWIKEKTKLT 1.4e+07

Requested read-out: kcat/KM. Entry: FIXa variant Y155F/R318Y/R338E/R403E/E410N (protein) chain 1: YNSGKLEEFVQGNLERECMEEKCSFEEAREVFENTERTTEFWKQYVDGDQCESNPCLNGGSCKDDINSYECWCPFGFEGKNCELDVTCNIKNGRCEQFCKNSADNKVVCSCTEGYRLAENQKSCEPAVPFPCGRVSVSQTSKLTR chain 2: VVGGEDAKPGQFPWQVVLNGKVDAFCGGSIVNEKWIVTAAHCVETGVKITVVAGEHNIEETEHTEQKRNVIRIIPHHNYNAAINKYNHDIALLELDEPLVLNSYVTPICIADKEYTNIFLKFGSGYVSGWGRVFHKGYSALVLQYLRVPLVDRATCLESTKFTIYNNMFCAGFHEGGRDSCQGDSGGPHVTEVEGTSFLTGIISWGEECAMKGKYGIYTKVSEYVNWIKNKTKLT 1.9e+08

Requested read-out: kcat/KM. Entry: FIXa-A103N/N105S/K247N/N249S/R318Y/R338E/R403E/E410N (protein) chain 1: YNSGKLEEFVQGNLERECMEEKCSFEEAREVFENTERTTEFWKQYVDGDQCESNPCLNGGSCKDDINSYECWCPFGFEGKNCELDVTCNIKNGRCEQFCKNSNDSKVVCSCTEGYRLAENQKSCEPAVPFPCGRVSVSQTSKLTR chain 2: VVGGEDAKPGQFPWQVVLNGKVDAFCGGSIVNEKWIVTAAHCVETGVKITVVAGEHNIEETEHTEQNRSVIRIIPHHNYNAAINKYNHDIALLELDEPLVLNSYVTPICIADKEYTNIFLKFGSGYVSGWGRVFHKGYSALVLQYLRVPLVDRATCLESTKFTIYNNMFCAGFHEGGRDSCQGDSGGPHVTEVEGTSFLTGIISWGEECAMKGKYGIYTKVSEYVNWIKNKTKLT 1.5e+08

Requested read-out: kcat/KM. Entry: FIXa-K247N/N249S/R318Y/R338E/E410N (protein) chain 1: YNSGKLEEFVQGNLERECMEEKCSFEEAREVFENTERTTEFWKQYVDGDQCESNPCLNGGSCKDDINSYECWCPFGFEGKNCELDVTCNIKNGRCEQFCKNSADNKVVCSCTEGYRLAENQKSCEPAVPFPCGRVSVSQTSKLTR chain 2: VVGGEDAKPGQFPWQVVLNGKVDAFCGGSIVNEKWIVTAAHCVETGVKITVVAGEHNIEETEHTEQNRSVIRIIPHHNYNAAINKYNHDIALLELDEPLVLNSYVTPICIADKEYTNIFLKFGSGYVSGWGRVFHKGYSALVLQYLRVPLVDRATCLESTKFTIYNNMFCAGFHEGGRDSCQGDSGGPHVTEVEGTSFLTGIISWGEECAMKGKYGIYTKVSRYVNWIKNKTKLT 2.3e+08
